Taken from PubChem BioAssay (NCI).

system: UO-31 renal; assay: NCI-60 one-dose screen, 48 h (100 = growth as untreated, 0 = no growth, -100 = all killed); settings: 10 µM unless noted
This is part of a sample that, as a whole, favours compounds with a hit. Of some 83,000 tested, about 20% had one in any assay.
Measured growth by item
metric: growth (%)

> print(dat)
                                   compound  unit.of.measure  assay.result
1         O=[N+]([O-])c1c(O)c(Cl)cc(Cl)c1Cl                %          93.6
2  COC(=O)[C@@]12CC=C(C)[C@]3(C[C@H](c4ccoc4)OC3=O)[C@H]1C=C[C@@H](O)[C@@]2(O)C(=O)OC                %          82.7
3  C[C@H](c1nc2ccc(C#N)cc2[nH]1)[C@H]1CC[C@H]2[C@@H]3CCC4=CC(=O)CC[C@]4(C)[C@H]3CC[C@]12C                %          51.8
4  O=c1oc2ccccc2cc1-c1nn(-c2ccccc2)cc1-c1nn[nH]n1                %          78.4
5  CN(C)CCCC1(c2ccc(F)cc2)OCc2cc(-c3csc4ccccc34)ccc21 (centres undefined)                %          2.29
6  COc1cc(Cc2cc(-c3ccccc3)nn(Cc3ccccc3)c2=O)cc(OC)c1OC                %          21.6
7    Oc1nc(NCc2ccccc2)sc1/C=C1\C=Nc2ncccc21                %          84.8
8  COC(=O)[C@]1(C)CCC[C@]2(C)[C@H]3C[C@@H]4[C@H]5[C@@H]6CC/C(=N\OCC/C(N)=N/O)[C@H]5[C@@]3(CC[C@H]21)CC4(C(C)C)O6                %          50.1
9  Cc1ccc(OCCOCCOCCOCCOCCOc2ccc(C)n(O)c2=S)c(=S)n1O                %         -26.1

###

tested on: U251 CNS; assay: NCI-60 one-dose screen, 48 h; details: 10 µM unless noted
Compounds without any hit were thinned out: in the full panel of roughly 83,000, 20% have a hit. Active and inactive are the calls of the source. The calls were made as follows: active = growth percent below 10; inactive = the rest.
Possible outcomes: active, inactive

compound	class-label
O=C(N/N=C/c1ccc(Cl)cc1)c1ccc(NC(=O)c2ccccn2)cc1	inactive
CCN(CC)CCn1c2ccc(OC)cc2c2sc3cc(O)ccc3c(=O)c21	inactive
O=C(Nc1ncc(Cc2ccccc2)s1)c1sc2ccccc2c1Cl	inactive
COC1C(O)CC(OC2CC(OC3CC(O[C@@H]4C(=O)c5c(cc6cc(OC7CC(OC8CC(O)C(O)C(C)O8)C(O)C(C)O7)c(C)c(O)c6c5O)CC4[C@H](OC)[C@@H](O)C(C)=O)OC(C)C3O)OC(C)C2O)OC1C (some centres undefined)	active
Brc1ccc(Nc2nc(Nc3cnc4ccccc4c3)c3[nH]cnc3n2)cc1	inactive
CC1=C2CC/C(C)=C/CC[C@]3(C)O[C@H]3CC/C(C)=C/[C@H]2OC1	inactive
Nc1ccc(-c2ccncc2)cc1NC(=O)N1CCCC1	inactive
CN1C(=O)N2CN3CCCN(C3)CN3C(=S)NC1C23 (centres undefined)	inactive
Cc1cc(O)c(=O)cc2c1C[C@H]1CC(C)(C)/C=C/C[C@]3(C)Oc4cc(=O)c(O)cc(C)c4C[C@H]3C[C@H](O)[C@@]1(C)O2	active
